The origin of these recorded values is ChEMBL document CHEMBL4689842.

# Test system: U2OS
# assay comment: Multiplex assay against U2OS
# Format: toxicity, cell-based
# condition parameters: human, 48 h, 1 µM, compound concentration 1 uM, replicate 1
reported endpoint: Total Cell Count

{"molecule": "CC(C)NCC(O)COc1ccc(CCOCC2CC2)cc1.Cl (centres undefined) [BETAXOLOL HYDROCHLORIDE]", "system under test": "U2OS", "value observed": 296}
{"molecule": "CN1CCN(c2ccc(OC(F)(F)F)c(Nc3ncc4c(n3)-c3c(c(C(N)=O)nn3CCO)CC4)c2)CC1", "system under test": "U2OS", "value observed": 1338}
{"molecule": "Cn1cc(-c2[nH]c3cc(NC(=O)[C@H](N)C4CCCCC4)cc4c3c2C=NNC4=O)cn1", "system under test": "U2OS", "value observed": 124}
{"molecule": "CC(C)(O)CNc1ncc(-c2ccnc(Nc3ccnc(Cl)c3)n2)c(CC2CC2)n1", "system under test": "U2OS", "value observed": 130}
{"molecule": "OC1(c2ccc(Cl)cc2)CCN(Cc2c[nH]c3ccccc23)CC1", "system under test": "U2OS", "value observed": 132}
{"molecule": "COc1cccc([C@@H](C)NCCCc2ccccc2Cl)c1.Cl [TECALCET HYDROCHLORIDE]", "system under test": "U2OS", "value observed": 378}
{"molecule": "c1cn2cc(-c3ccc4cn[nH]c4c3)nc(Nc3ccc(N4CCOCC4)cc3)c2n1", "system under test": "U2OS", "value observed": 206}
{"molecule": "Cc1nc(-c2ccc(-c3ccc(C(=O)N4CCc5cc6c(cc54)C4(CCN(C)CC4)CO6)cc3)c(C)c2)no1", "system under test": "U2OS", "value observed": 156}
{"molecule": "O=C1NCN(c2ccccc2)C12CCN(CCCOc1ccc(F)cc1)CC2 [SPIRAMIDE]", "system under test": "U2OS", "value observed": 288}

* * *

Listed compounds paired with reported Population Apoptotic (%)
# Tested on: Fibroblast
# assay comment: Multiplex assay against human fibroblast
# Assay type: toxicity, cell-based
# condition parameters: 24 h, 1 µM, compound concentration 1 uM, replicate 1

{"compound": "Cc1nc(-c2cn3c(n2)-c2ccc(-c4cnn(C(C)(C)C(N)=O)c4)cc2OCC3)n(C(C)C)n1 [TASELISIB]", "Population Apoptotic (%)": 78}
{"compound": "CN(C)C(=O)/C(C#N)=C/c1ccc(-c2nc3cnc4[nH]ccc4c3n2C2CCCCC2)o1", "Population Apoptotic (%)": 43}
{"compound": "C=CC(=O)Nc1cc2c(Nc3ccc(F)c(Cl)c3)ncnc2cc1OCCCN1CCOCC1.Cl.Cl [CANERTINIB DIHYDROCHLORIDE]", "Population Apoptotic (%)": 71}
{"compound": "CN1CCC[C@@H]1CCO[C@](C)(c1ccccc1)c1ccc(Cl)cc1.O=C(O)/C=C/C(=O)O [CLEMASTINE FUMARATE]", "Population Apoptotic (%)": 63}
{"compound": "C[C@@]1(C(=O)Nc2ccc(F)nc2)CCCN1c1nc(Nc2cc(C3CC3)n[nH]2)c2cccn2n1 [BMS-754807]", "Population Apoptotic (%)": 63}
{"compound": "CN1CCN(CCOc2cc(OC3CCOCC3)c3c(Nc4c(Cl)ccc5c4OCO5)ncnc3c2)CC1 [SARACATINIB]", "Population Apoptotic (%)": 47}
{"compound": "Cc1c(-c2ccc(O)cc2)n(Cc2ccc(OCCN3CCCCCC3)cc2)c2ccc(O)cc12 [BAZEDOXIFENE]", "Population Apoptotic (%)": 80}
{"compound": "CN1CCCC(n2nc(Cc3ccc(Cl)cc3)c3ccccc3c2=O)CC1.Cl (stereo unspecified) [AZELASTINE HYDROCHLORIDE]", "Population Apoptotic (%)": 40}
{"compound": "OC1(c2ccc(Cl)cc2)CCN(Cc2c[nH]c3ccccc23)CC1", "Population Apoptotic (%)": 52}
{"compound": "CCN(CC)CCCCNc1ncc2cc(-c3cc(OC)cc(OC)c3)c(NC(=O)NC(C)(C)C)nc2n1 [PD-173074]", "Population Apoptotic (%)": 59}
{"compound": "Cc1nc(-c2ccc(-c3ccc(C(=O)N4CCc5cc6c(cc54)C4(CCN(C)CC4)CO6)cc3)c(C)c2)no1 [SB-224289]", "Population Apoptotic (%)": 65}
{"compound": "c1cn2cc(-c3ccc4cn[nH]c4c3)nc(Nc3ccc(N4CCOCC4)cc3)c2n1 [ENTOSPLETINIB]", "Population Apoptotic (%)": 60}
{"compound": "O=C1NCN(c2ccccc2)C12CCN(CCCOc1ccc(F)cc1)CC2 [SPIRAMIDE]", "Population Apoptotic (%)": 57}
{"compound": "NC(=O)Nc1cc(-c2cccc(F)c2)sc1C(=O)N[C@H]1CCCNC1 [AZD-7762]", "Population Apoptotic (%)": 61}
{"compound": "CN(C)C(=O)N[C@H]1CC[C@H](CCN2CCN(c3cccc(Cl)c3Cl)CC2)CC1.Cl [CARIPRAZINE HYDROCHLORIDE]", "Population Apoptotic (%)": 72}
{"compound": "Cc1[nH]c(/C=C2\\C(=O)Nc3ccc(S(=O)(=O)N(C)c4cccc(Cl)c4)cc32)c(C)c1C(=O)N1CCN(C)CC1", "Population Apoptotic (%)": 53}

* * *

Listed molecules paired with reported Growth Rate
# System: HEK-293T
# assay comment: Incucyte cell viability with HEK293T; also: filed as whole numbers so only -1 and 0 and 1 occur
# Assay type: toxicity, cell-based
# condition parameters: human, 6 h, 10 µM, compound concentration 10 uM, replicate number 1, timepoint 6 hours
reported endpoint: Growth Rate

{"molecule": "CC(C)(C)NCC(O)COc1cccc2[nH]c(=O)[nH]c12.Cl (stereo not drawn)", "value observed": 0}
{"molecule": "CSc1ccc(C(=O)N[C@@H]2CCCC[C@@H]2NC(=O)CNC(=O)c2cc(C(F)(F)F)ccc2NC(=O)NC(C)C)cc1", "value observed": 0}
{"molecule": "COc1ccc2cc(OCC3(C(=O)O)CN(C(=O)c4ccc(F)cc4)C3)ccc2c1", "value observed": 1}
{"molecule": "N#Cc1c(O)nc(SCc2cccc(F)c2F)nc1C1CC1", "value observed": 1}
{"molecule": "O=C(NCCCN1CCOC1=O)c1cnc(NCc2cc(Br)ccc2Br)nc1NC1CCCC1", "value observed": 1}
{"molecule": "Cc1c(-c2ccc(O)cc2)n(Cc2ccc(OCCN3CCCCCC3)cc2)c2ccc(O)cc12", "value observed": 0}
{"molecule": "CC(=O)OCC(=O)[C@@]1(O)CC[C@H]2[C@@H]3CCC4=CC(=O)CC[C@]4(C)[C@@]3(F)[C@@H](O)C[C@@]21C [FLUDROCORTISONE ACETATE]", "value observed": 1}
{"molecule": "O=C(NCc1ccccc1)c1ccc(S(=O)(=O)NCc2ccccc2)cc1", "value observed": 0}

* * *

# System: Fibroblast
# assay comment: Incucyte cell viability with human fibroblast; also: filed as whole numbers so only -1 and 0 and 1 occur
# Type: toxicity, cell-based
# condition parameters: 24 h, 10 µM, compound concentration 10 uM, replicate number 1, timepoint 24 hours
Listed compounds paired with reported Growth Rate
reported endpoint: Growth Rate

{"compound": "CCOc1cc(N2CCC(O)CC2)ccc1Nc1ncc2c(n1)N(C)c1ccccc1C(=O)N2C", "reported endpoint": "Growth Rate", "value observed": 1}
{"compound": "CN1CCN(CCOc2cc(OC3CCOCC3)c3c(Nc4c(Cl)ccc5c4OCO5)ncnc3c2)CC1 [SARACATINIB]", "reported endpoint": "Growth Rate", "value observed": 1}
{"compound": "c1cn2cc(-c3ccc4cn[nH]c4c3)nc(Nc3ccc(N4CCOCC4)cc3)c2n1 [ENTOSPLETINIB]", "reported endpoint": "Growth Rate", "value observed": 0}
{"compound": "CC(=O)Nc1c(C(C)=O)c(=O)n(C)c2nc(-c3ccc(Cl)cc3Cl)c(-c3ccc(Cl)cc3)cc12 [NAPHTHYRIDINONE]", "reported endpoint": "Growth Rate", "value observed": 0}
{"compound": "O=C(O)c1ccc(-c2coc3ncc(-c4ccccc4)cc23)cc1Cl", "reported endpoint": "Growth Rate", "value observed": 0}
{"compound": "C[C@H](c1ccc(F)cc1)N(Cc1ccc(Cl)c(C(=O)O)c1)C(=O)c1cnc2ccccc2c1 [PF-05257137]", "reported endpoint": "Growth Rate", "value observed": 1}
{"compound": "O=C(O)C[C@H]1CCc2c1[nH]c1ccc(OCc3ccc(C4CCCC4)c(C(F)(F)F)c3)cc21 [ETRASIMOD]", "reported endpoint": "Growth Rate", "value observed": 0}
{"compound": "CCn1c(=O)c(-c2ccc(Cl)cc2Cl)cc2cnc(Nc3ccc(N4CCNCC4)c(F)c3)nc21", "reported endpoint": "Growth Rate", "value observed": 0}
{"compound": "CC(=O)C1=C(C)N(c2cccc(C(F)(F)F)c2)C(=O)N[C@H]1c1ccc(C#N)nc1 [BAY-677]", "reported endpoint": "Growth Rate", "value observed": 0}
{"compound": "O=C(c1ccc(F)cc1)N1CC(COc2ccc(Br)cc2)(C(=O)O)C1 [PF-04475866]", "reported endpoint": "Growth Rate", "value observed": 1}
{"compound": "O=c1nc(-c2ccccn2)sc2ccccc12 [BTZO-1]", "reported endpoint": "Growth Rate", "value observed": 0}
{"compound": "CN1CCCC(n2nc(Cc3ccc(Cl)cc3)c3ccccc3c2=O)CC1.Cl (stereo not drawn) [AZELASTINE HYDROCHLORIDE]", "reported endpoint": "Growth Rate", "value observed": 0}
{"compound": "Nc1c(C(=O)NCc2ccc(C(=O)NCCCC3CCCCC3)cc2)cnn1-c1ccccc1 [SR-318]", "reported endpoint": "Growth Rate", "value observed": 0}
{"compound": "COc1cc2nccc(Oc3ccc(NC(=O)Nc4cc(C)on4)c(Cl)c3)c2cc1OC.O", "reported endpoint": "Growth Rate", "value observed": 0}
{"compound": "COc1ccc(CNC(=O)c2cc(-c3cncc(Cl)c3)cnc2-c2ccccn2)nc1OC [MK-1064]", "reported endpoint": "Growth Rate", "value observed": 0}
{"compound": "Cc1csc2c(N[C@@H](C)CN3CCN(S(=O)(=O)c4ccc(Cl)c(Cl)c4)CC3)ncnc12", "reported endpoint": "Growth Rate", "value observed": 0}
{"compound": "COc1ccc(Cn2ccc3ccc(C(=O)NO)cc32)cc1", "reported endpoint": "Growth Rate", "value observed": 1}
{"compound": "Cc1cc(Nc2nccc(C)n2)cc(-c2cnc([C@@]3(O)CC[C@H](C(=O)O)C(C)(C)C3)s2)c1 [MRL-SYKi]", "reported endpoint": "Growth Rate", "value observed": 1}
{"compound": "CC(C)S(=O)(=O)c1ccc2nccc(Nc3ccc4scnc4c3)c2c1", "reported endpoint": "Growth Rate", "value observed": 0}
{"compound": "C[C@H](Cc1cc2c(c(C(N)=O)c1)N(CCCO)CC2)NCCOc1ccccc1OCC(F)(F)F [SILODOSIN]", "reported endpoint": "Growth Rate", "value observed": 1}
{"compound": "O=C(NCCCN1CCOC1=O)c1cnc(NCc2cc(Br)ccc2Br)nc1NC1CCCC1", "reported endpoint": "Growth Rate", "value observed": 0}
{"compound": "CC(C)C(=O)Nc1n[nH]c2cc(-c3cccc(NS(=O)(=O)C4CC4)c3)ccc12", "reported endpoint": "Growth Rate", "value observed": 0}
{"compound": "COc1cc2c(cc1OCCCN1CCCC1)N=C(N)C21CCC1", "reported endpoint": "Growth Rate", "value observed": 1}
{"compound": "CCn1cc(-c2cccc(C(F)(F)F)c2)c2sc(C(=N)NC3CCS(=O)(=O)CC3)cc2c1=O", "reported endpoint": "Growth Rate", "value observed": 0}
{"compound": "CCC(=O)N1CCOc2c(cc(-c3ccc(OC)c(OC)c3)cc2OC[C@H]2CCCN(C)C2)C1", "reported endpoint": "Growth Rate", "value observed": 1}
{"compound": "CN(C)c1ncnc(-c2ccc3nc(Nc4cc(CN5CCN(C(=O)CC(F)(F)F)CC5)ccn4)[nH]c3c2)c1Cl [BAY-440]", "reported endpoint": "Growth Rate", "value observed": 1}
{"compound": "Cc1nc(Nc2n[nH]c3c2CN(C(=O)N[C@H](CN(C)C)c2ccccc2)C3(C)C)c2sccc2n1 [PF-03758309]", "reported endpoint": "Growth Rate", "value observed": 0}
{"compound": "CN(C)[C@@H]1CCN(c2cc(-c3ccccc3)nc3ccnn23)C1 [(R)-ZINC-3573]", "reported endpoint": "Growth Rate", "value observed": 1}
